Tested on: gene editing with Cas9
Assay: Screen of 322 new SSAP proteins, gene editing activity with Cas9 (Table 5)
Type: cell-based
Conditions: normalized
Each entry below carries its reported Cas9 with SSAP activity (normalized).
Write no unit; give the number alone.

Entry SSAP_112: SEQ ID NO: 281; Bacillus sp. UNC322MFChir4.1 (protein, listed as Bacillus sp.) ATNKDVKNQLANRKENKPATPEQKVEAYMTAMAPRFAEVLPKHMSMDRMSRIALTTIRTNPKLLECSVPSLMGAVMQAVQLGLEPGLLGHCYILPYKSEATFIIGYKGMIDLARRSGHIQSIYAHAVYENDEFDYELGLHPKLTHKPSFGERGEFIGAYAVAHFKDGGHQMEFMPKSEIEKRRSRSASGNSSYSPWKSDYEEMAKKTVVRYMFKYLPISIEVQSQAQHDEVVRKDITEEPEFIEMDSIEVAEASEGDGQKEFVIEE needs its Cas9 with SSAP activity (normalized) filled in; supply it.
−0.628

Others:
Please report the measured Cas9 with SSAP activity (normalized) for SSAP_66: SEQ ID NO: 235 (protein) TNQLAHKDFFNTPAVKQKFQEVLNGNERQFTASLLSIVNNNKLLARASNTSIMTAAMKAAVLNLPIEPSLGFAYIVPYGQDAQFQLGYKGLIQLAIRSGQFKAINSGKVYKAQFKSYDPLFETLDIDFTQPEDEVYGYFATFELVNGFKKLTFWTKEQAESHGKRFSKTYAKGPWSTDFDAMAQKTVLKSILSKYAPLSTEMQEGLISDNQTEEVETDPIDVTPKNEDTQTLLSDLMSDEAESETEKV
0.407
